melting point: recorded values

Below, 6 compounds whose answers are already recorded.
compound	melting point
CC(C)(NC(=O)c1cc(-c2ccccc2)nc2ccccc12)c1ccccc1	173 to 174 °C
CCCCC(NC(=O)c1cc(-c2ccccc2)nc2ccccc12)c1ccccc1 (centres unmarked)	155 to 156 °C
COC(=O)C(NC(=O)c1cc(-c2ccccc2)nc2ccc(Cl)cc12)c1ccccc1 (centres unmarked)	197 to 199 °C
CC[C@H](NC(=O)c1c(Br)c(-c2ccccc2)nc2ccccc12)c1ccccc1	119 to 122 °C
COC(=O)C(NC(=O)c1cc(-c2cc3ccccc3o2)nc2ccccc12)c1ccccc1 (centres unmarked)	240 to 241 °C
COCC(NC(=O)c1cc(-c2ccccc2)nc2ccccc12)c1ccccc1 (centres unmarked)	144 to 145 °C

IN: Fill blank: measured melting point of the compound CCC(NC(=O)c1c(-c2ccccc2)c(-c2ccccc2)nc2ccccc12)c1ccccc1 (centres unmarked) is ____.
OUT: 198 to 200 °C

IN: Another compound: `CC[C@H](NC(=O)c1c(Cl)c(-c2ccccc2)nc2ccccc12)c1ccccc1`
OUT: 137 to 139 °C

====

Below, each entry is listed alongside its reported melting point.

Take a look at these entries with their results.
compound	observed_result
COC(=O)C(NC(=O)c1c2c(nc3ccccc13)-c1ccccc1CCC2)c1ccccc1 (centres unmarked)	186 to 188 °C
COC(=O)C(NC(=O)c1c2c(nc3ccccc13)-c1ccccc1CC2)c1ccccc1 (centres unmarked)	217 to 219 °C
COC(=O)[C@H](NC(=O)c1c(O)c(-c2ccccc2)nc2ccccc12)c1ccccc1	125 to 127 °C
CC[C@H](NC(=O)c1c(C)c(-c2ccc(Br)cc2)nc2ccc(Br)cc12)c1ccccc1	230 to 231 °C

For the next question, use this compound.
IN: Item COC(=O)C(NC(=O)c1cc(-c2cccc(Cl)c2)nc2ccccc12)c1ccccc1 (centres unmarked) has what recorded melting point?
OUT: 161 to 163 °C

====

reported_endpoint: melting point

Example compounds with recorded melting point:
compound	observed_result
NC[C@H](NC(=O)c1cc(-c2ccccc2)nc2ccccc12)c1ccccc1	139 to 141 °C
CCCCc1c(-c2ccccc2)nc2ccccc2c1C(=O)NC(CC)c1ccccc1 (stereo not drawn)	147 to 150 °C

IN: Dear colleague, I am looking for the recorded melting point of the following compound: COC(=O)C(NC(=O)c1cc(C2CCCCC2)nc2ccccc12)c1ccccc1 (stereo not drawn)
OUT: 151 to 153 °C

IN: Also COC(=O)C(NC(=O)c1cc(-c2ccccc2)nc2c(OC(C)=O)cccc12)c1ccccc1 (stereo not drawn) , if possible.
OUT: 193 to 194 °C

IN: Another: CCC(NC(=O)c1cc(-c2ccccc2)nc2ccccc12)c1ccc(Cl)c(Cl)c1 (stereo not drawn)
OUT: 193 to 194 °C

IN: Next compound: COC(=O)C(NC(=O)c1cc(-c2ccc(Cl)c(Cl)c2)nc2ccccc12)c1ccccc1 (stereo not drawn)
OUT: 164 to 165 °C

====

Quick reference: melting point of the listed items.

compound	observed_result
CCc1c(-c2ccccc2)nc2ccccc2c1C(=O)NC(CC)c1ccccc1 (stereo not shown)	158 to 159 °C

IN: Please look up its melting point: `CCc1c(-c2ccccc2)nc2ccccc2c1C(=O)N[C@@H](CC)c1ccccc1`
OUT: 118 to 120 °C

IN: Please do the same for COC(=O)C(NC(=O)c1cc(-c2ccccc2Cl)nc2ccccc12)c1ccccc1 (stereo not shown) as well.
OUT: 175 to 178 °C

IN: Try the compound COC(=O)C(NC(=O)c1cc(-c2ccccc2F)nc2ccccc12)c1ccccc1 (stereo not shown)
OUT: 146 to 147 °C

This collection of values is drawn from patent US6743804B2.
